Target: human PPARα (Homo sapiens)
Sequence (Q07869 1-468): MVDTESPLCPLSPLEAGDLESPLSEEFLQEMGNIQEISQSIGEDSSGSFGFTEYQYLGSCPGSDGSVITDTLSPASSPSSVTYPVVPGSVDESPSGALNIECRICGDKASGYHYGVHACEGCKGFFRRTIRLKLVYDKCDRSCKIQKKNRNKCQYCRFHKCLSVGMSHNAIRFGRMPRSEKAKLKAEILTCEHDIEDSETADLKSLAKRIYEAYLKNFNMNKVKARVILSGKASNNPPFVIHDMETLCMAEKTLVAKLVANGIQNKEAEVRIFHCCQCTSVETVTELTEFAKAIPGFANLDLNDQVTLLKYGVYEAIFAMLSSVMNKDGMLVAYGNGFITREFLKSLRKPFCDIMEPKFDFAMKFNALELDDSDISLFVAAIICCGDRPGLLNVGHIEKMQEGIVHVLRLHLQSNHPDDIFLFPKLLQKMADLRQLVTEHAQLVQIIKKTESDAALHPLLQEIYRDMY
Assay: PPARRE-luciferase reporter in HepG2 cells transfected with human PPARα
Details: retinoic acid 200 nM, read-out: EC50 activation of human PPARα (hPPARα)
assay endpoint: EC50

Recorded EC50 for `Cc1nc(-c2ccc(Cl)cc2)oc1COC(C)(C)C(=O)O` , please?
~200 µM

* * *

target: rat PPARα (Rattus norvegicus, UniProt P37230); assay: PPARRE-luciferase reporter in HepG2 cells transfected with rat PPARα; details: retinoic acid 200 nM, read-out: EC50 activation of rat PPARα (rPPARα)
Sequence (P37230 whole entry): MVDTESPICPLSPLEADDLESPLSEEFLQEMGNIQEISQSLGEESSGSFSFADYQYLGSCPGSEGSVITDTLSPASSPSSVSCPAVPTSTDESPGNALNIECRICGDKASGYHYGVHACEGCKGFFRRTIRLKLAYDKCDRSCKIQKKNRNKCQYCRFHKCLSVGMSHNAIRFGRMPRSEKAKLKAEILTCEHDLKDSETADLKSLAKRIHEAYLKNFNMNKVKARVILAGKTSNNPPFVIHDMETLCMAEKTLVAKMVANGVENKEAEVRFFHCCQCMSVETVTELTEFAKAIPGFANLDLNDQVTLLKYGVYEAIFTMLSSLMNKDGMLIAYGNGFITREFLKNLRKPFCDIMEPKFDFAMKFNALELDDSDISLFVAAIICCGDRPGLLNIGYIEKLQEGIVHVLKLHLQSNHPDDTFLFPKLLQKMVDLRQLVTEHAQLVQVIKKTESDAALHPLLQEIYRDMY
pEC50: −log10 of the molar value.
assay endpoint: pEC50

Query (compound): Cc1nc(-c2ccc(Cl)cc2)oc1COC(C)(C)C(=O)O [romazarit] ; field requested: pEC50
~3.70

Recorded values, source patent US20100105746A1.
